Entries and their shrunken log2 fold change values follow.
- System: Escherichia coli TOP10;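 also: peptides expressed intracellularly from a pBAD plasmid library in pooled LB shake-flask culture, induced with 0.3% L-arabinose, DNA abundance read by NGS, three biological replicates, DESeq2 with apeglm shrinkage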
- RUN_DESCRIPTION: shrunken log2 fold change of peptide-encoding DNA abundance (4.5 h post-induction vs induction); higher = less antimicrobial activity (less host growth inhibition)
- CONDITION_SUMMARY: time post-induction: 4.5 h; library: site-saturation at positions 5, 18, 19, 20

# BIOSEQUENCE, STUDY_SYSTEM, shrunken log2 fold change
records = [
    ("RRIRMRPPRLPRPRPRPRLVPRP", "Escherichia coli TOP10", 0.76),
    ("RRIRARPPRLPRPRPRPSSGPRP", "Escherichia coli TOP10", 0.412),
    ("RRIRERPPRLPRPRPRPWRRPRP", "Escherichia coli TOP10", 0.115),
    ("RRIRKRPPRLPRPRPRPFNIPRP", "Escherichia coli TOP10", 0.186),
    ("RRIRKRPPRLPRPRPRPYMRPRP", "Escherichia coli TOP10", -0.0194),
    ("RRIRYRPPRLPRPRPRPCHKPRP", "Escherichia coli TOP10", -0.821),
    ("RRIRVRPPRLPRPRPRPHHDPRP", "Escherichia coli TOP10", -0.37),
    ("RRIRGRPPRLPRPRPRPLAEPRP", "Escherichia coli TOP10", 2.89),
    ("RRIRTRPPRLPRPRPRPKMPPRP", "Escherichia coli TOP10", 0.158),
    ("RRIRHRPPRLPRPRPRPSGSPRP", "Escherichia coli TOP10", -0.175),
    ("RRIRERPPRLPRPRPRPIKDPRP", "Escherichia coli TOP10", -0.168),
    ("RRIRMRPPRLPRPRPRPHVEPRP", "Escherichia coli TOP10", 0.00707),
    ("RRIRFRPPRLPRPRPRPHYAPRP", "Escherichia coli TOP10", -0.285),
    ("RRIRLRPPRLPRPRPRPTCEPRP", "Escherichia coli TOP10", 0.497),
    ("RRIRYRPPRLPRPRPRPRRCPRP", "Escherichia coli TOP10", 0.254),
]
